Tested on: velvetleaf (Abutilon theophrasti)
procedure.summary: Test G Post-Emergence Protocol
Type: in vivo
experimental.conditions: Abutilon theophrasti, post-emergence, 312 h, 250 g ai/ha, evaluated after 13 days, read-out: damage to plant, Velvetleaf (100=total damage to plant; 0=no damage to plant)
Description: Seeds of corn (Zea mays), giant foxtail (Setaria faberi), barnyardgrass (Echinochloa crus-galli), ivy-leaved morning glory (Ipomoea hederacea), redroot pigweed (Amaranthus retroflexus) and velvetleaf (Abutilon theophrasti) were sown in standard soil in pots. […]
For each of the compounds below, state its pest or weed control at 250 g/ha.
Unit % implied. Number only.

Test system velvetleaf (Abutilon theophrasti); read-out pest or weed control at 250 g/ha; what value for CN1C[C@@H](c2ccc(C(F)(F)F)cc2)[C@H](C(=O)Nc2nnc(C(F)(F)F)s2)C1=O (racemic) ?
0

Test system velvetleaf (Abutilon theophrasti); read-out pest or weed control at 250 g/ha; what value for CN1C[C@H](c2cccc(C(F)(F)F)c2)[C@@H](C(=O)Nc2cccnc2F)C1=O ?
40

Test system velvetleaf (Abutilon theophrasti); read-out pest or weed control at 250 g/ha; what value for Cc1ccc(NC(=O)[C@@H]2C(=O)N(C)C[C@H]2c2ccc(C(F)(F)F)cc2)nn1 (racemic) ?
30

Test system velvetleaf (Abutilon theophrasti); read-out pest or weed control at 250 g/ha; what value for CN1C[C@@H](c2ccc(Cl)nc2)[C@H](C(=O)Nc2cccc(F)c2F)C1=O (racemic) ?
0

Test system velvetleaf (Abutilon theophrasti); read-out pest or weed control at 250 g/ha; what value for Cc1c(NC(=O)[C@@H]2C(=O)N(C)C[C@H]2c2ccc(C(F)(F)F)cc2)ccc(F)c1F (racemic) ?
40

Test system velvetleaf (Abutilon theophrasti); read-out pest or weed control at 250 g/ha; what value for Cc1cc(NC(=O)[C@@H]2C(=O)N(C)C[C@H]2c2ccc(C(F)(F)F)cc2)n[nH]1 (racemic) ?
0

Test system velvetleaf (Abutilon theophrasti); read-out pest or weed control at 250 g/ha; what value for CC(C)c1cc([C@H]2CN(C)C(=O)[C@@H]2C(=O)Nc2cccc(F)c2F)cnn1 (racemic) ?
0

Test system velvetleaf (Abutilon theophrasti); read-out pest or weed control at 250 g/ha; what value for CN1C[C@H](c2ccc(F)c(OCC(F)(F)F)c2)[C@@H](C(=O)Nc2ccccc2F)C1=O (racemic) ?
20

Test system velvetleaf (Abutilon theophrasti); read-out pest or weed control at 250 g/ha; what value for CN1C[C@@H](c2ccc(C(F)(F)F)cc2)[C@H](C(=O)Nc2ccc(F)c(Cl)c2F)C1=O (racemic) ?
20

Test system velvetleaf (Abutilon theophrasti); read-out pest or weed control at 250 g/ha; what value for Cc1nc(NC(=O)[C@@H]2C(=O)N(C)C[C@H]2c2ccc(C(F)(F)F)cc2)ccc1Cl (racemic) ?
0

Test system velvetleaf (Abutilon theophrasti); read-out pest or weed control at 250 g/ha; what value for CN1C[C@H](c2ccc(C(F)(F)F)cc2)[C@@H](C(=O)Nc2ccc(F)c(C(F)(F)F)c2)C1=O (racemic) ?
0

Test system velvetleaf (Abutilon theophrasti); read-out pest or weed control at 250 g/ha; what value for Cc1c(NC(=O)[C@H]2C(=O)N(C)C[C@@H]2c2ccc(C(F)(F)F)cc2)cccc1C(F)(F)F (racemic) ?
0

Test system velvetleaf (Abutilon theophrasti); read-out pest or weed control at 250 g/ha; what value for CN1C[C@@H](c2ccc(C(F)(F)F)cc2)[C@H](C(=O)Nc2ccnc(Cl)n2)C1=O (racemic) ?
0

Test system velvetleaf (Abutilon theophrasti); read-out pest or weed control at 250 g/ha; what value for CN1C[C@@H](c2ccc(C(F)(F)F)cc2)[C@H](C(=O)Nc2cc(C(F)(F)F)nn2C)C1=O (racemic) ?
0
